The reported measurements were obtained from ChEMBL document CHEMBL5665443.

Listing of entries alongside the reported inhibition.
biological target: Adenine DNA glycosylase (Homo sapiens) (UniProt Q9UIF7); details: Compound Concentration 1.0 uM, Hit No;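 further: human MUTYH activity read as 594 nm fluorescence from cleavage and release of a quenched DNA duplex, coupled with APE1 for strand incision, lower signal meaning inhibition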
Sequence (Q9UIF7 whole entry): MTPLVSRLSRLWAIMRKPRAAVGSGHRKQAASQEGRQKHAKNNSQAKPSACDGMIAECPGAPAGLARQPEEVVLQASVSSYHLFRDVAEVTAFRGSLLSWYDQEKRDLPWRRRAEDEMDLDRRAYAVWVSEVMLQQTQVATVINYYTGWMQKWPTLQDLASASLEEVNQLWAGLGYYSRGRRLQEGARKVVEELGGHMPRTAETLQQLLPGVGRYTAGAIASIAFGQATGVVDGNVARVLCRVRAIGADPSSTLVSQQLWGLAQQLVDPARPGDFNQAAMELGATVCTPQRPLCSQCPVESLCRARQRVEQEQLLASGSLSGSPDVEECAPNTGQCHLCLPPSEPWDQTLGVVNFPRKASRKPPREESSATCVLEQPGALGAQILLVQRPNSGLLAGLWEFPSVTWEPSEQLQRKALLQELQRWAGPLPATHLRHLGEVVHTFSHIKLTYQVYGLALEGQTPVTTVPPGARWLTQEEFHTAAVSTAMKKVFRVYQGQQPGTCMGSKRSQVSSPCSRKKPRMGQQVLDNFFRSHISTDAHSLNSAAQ
Description: Inhibition of MUTYH by quantifying inhibition of MUTYH-mediated cleavage and dissociation of quenched duplex DNA oligonucleotides, measured as fluorescence at 594 nm. To generate a functional strand incision and increase turn-over this assay is coupled to APE1.
Provide only the numeric value, understood in %.

Record excerpt, results attached:
[[record]]
entry_smiles = "C[C@@H]1CN(c2cc(-c3n[nH]c4ccc(OC5(C)CC5)cc34)ncn2)C[C@H](C)O1"
readout_type = "inhibition"
observed_measurement = -7.22

[[record]]
entry_smiles = "CN(C)C(=O)Cn1cc(-c2ccc(-c3nnc4ccccn34)cc2)cn1"
readout_type = "inhibition"
observed_measurement = 27.4

[[record]]
entry_smiles = "Cc1cc(F)c(C(=O)Nc2cccc(-c3nncn3C(C)C)n2)cc1-n1cnc(C2CC2)c1"
readout_type = "inhibition"
observed_measurement = 8.56


In plain terms, Cc1c[nH]c2nccc(Oc3c(F)cc(Nc4cc(Cl)nc(N)n4)cc3F)c12 has a documented inhibition of 11.7

In plain terms, Nc1cnc(N2CCc3cc(S(=O)(=O)Nc4c(F)cc(Cl)cc4F)cc(N4CCCC4=O)c32)nc1 has a documented inhibition of -0.378

In plain terms, CC(C)(C)c1cc(NC(=O)Nc2ccc(-c3cn4c(n3)sc3cc(OCCN5CCOCC5)ccc34)cc2)no1 has a documented inhibition of 11.2

In plain terms, O=C(O)[C@H]1[C@H](Cn2nnc3ccccc3c2=O)CC[C@@H]1C(=O)c1ccc(OCCC2CCOCC2)cc1 has a documented inhibition of 7.33

In plain terms, O=C(Cc1ccccc1)Nc1nnc(N2CC[C@@H]3[C@H]2CN3c2cccnn2)s1 has a documented inhibition of 7.76

In plain terms, Cc1c(NC(=O)c2cc(C(N)=O)nc3cc(F)ccc23)c(C(F)(F)F)nn1Cc1ccc(C(C)(C)C)cc1 has a documented inhibition of 11.6

In plain terms, Cc1cccc(-c2[nH]c(CNc3ccccc3F)nc2-c2ccc3ncnn3c2)n1 has a documented inhibition of 6.74

###

biological target: Endonuclease 8-like 1 (Homo sapiens) (UniProt Q96FI4); settings: Compound Concentration 10.0 uM, Hit No
Sequence (Q96FI4 whole entry): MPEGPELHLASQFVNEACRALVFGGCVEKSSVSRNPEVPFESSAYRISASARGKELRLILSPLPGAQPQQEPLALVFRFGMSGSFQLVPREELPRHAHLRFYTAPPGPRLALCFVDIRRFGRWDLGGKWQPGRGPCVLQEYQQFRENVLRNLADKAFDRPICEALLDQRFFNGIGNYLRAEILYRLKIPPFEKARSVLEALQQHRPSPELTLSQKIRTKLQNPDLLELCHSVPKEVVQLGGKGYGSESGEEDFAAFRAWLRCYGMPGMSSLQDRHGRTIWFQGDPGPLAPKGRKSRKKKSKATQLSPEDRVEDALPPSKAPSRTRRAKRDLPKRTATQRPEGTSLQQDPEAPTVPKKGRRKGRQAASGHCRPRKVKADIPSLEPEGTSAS
Description: Inhibition of NEIL1 by quantifying inhibition of NEIL1-mediated cleavage and dissociation of quenched duplex DNA oligonucleotides, measured as fluorescence at 594 nm.
Listing of entries alongside the reported inhibition.
Provide only the numeric value, understood in %.

[[record]]
entry_smiles = "Nc1nc(NCc2ccccc2)nc(-c2cccc(CO)c2)n1"
observed_measurement = -6.05

[[record]]
entry_smiles = "O=C(Nc1cc(-c2ccccc2)nn1-c1ccccc1F)c1ccc([N+](=O)[O-])cc1"
observed_measurement = -2.66

[[record]]
entry_smiles = "c1cnc2cc3c(cc2n1)[C@@H]1CNC[C@H]3C1"
observed_measurement = 4.16

[[record]]
entry_smiles = "NS(=O)(=O)c1c(Cl)ccc(NC(=O)Nc2cccc(Cl)c2Cl)c1O"
observed_measurement = -2.13

[[record]]
entry_smiles = "CC(C)OC(=O)C1=CN(C(=O)c2ccc(F)c(F)c2)CC(C)(C)c2c1[nH]c1ccccc21"
observed_measurement = -3.02


In plain terms, COc1cc(OC2CCN(C(C)=O)CC2)ccc1C(=O)N1CCC(N2C(=O)OCc3ccccc32)CC1 has a documented inhibition of 2.08

In plain terms, COc1cc(C(=O)N(CCCc2ccccc2)Cc2ccc(CC(=O)O)cc2)cc(OC)c1C has a documented inhibition of -1.83

###

Listing of entries alongside the reported inhibition.
target: G/T mismatch-specific thymine DNA glycosylase (Homo sapiens); conditions: Compound Concentration 10.0 uM, Hit No
Description: Inhibition of TDG by quantifying inhibition of TDG-mediated cleavage and dissociation of quenched duplex DNA oligonucleotides, measured as fluorescence at 594 nm. To generate a functional strand incision and increase turn-over this assay is coupled to APE1.
Provide only the numeric value, understood in %.

Record excerpt, results attached:
[[record]]
entry_smiles = "N[C@@H](Cn1cc(F)c(=O)[nH]c1=O)C(=O)O"
readout_type = "inhibition"
observed_measurement = 12.4

[[record]]
entry_smiles = "O=c1ccc2ccc(OCCCCN3CCN(c4cccc5sccc45)CC3)cc2[nH]1"
readout_type = "inhibition"
observed_measurement = -1.81


In plain terms, CC[C@H](CO)Nc1nc(NCc2ccccc2)c2ncn(C(C)C)c2n1 has a documented inhibition of 38.4

In plain terms, O=C(O)C1CN(Cc2ccc(OCc3ccc(Cl)c(Cl)c3)cc2)C1 has a documented inhibition of 18.1

In plain terms, Nc1ncnc2c1ncn2[C@@H]1O[C@H](CO)[C@@H](O)[C@H]1O has a documented inhibition of 6.82

###

biological target: Endonuclease III-like protein 1 (Homo sapiens); conditions: Compound Concentration 10.0 uM, Hit No;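 further: enzyme assay tracking NTHL1 cutting and release of a quenched double-stranded DNA oligo substrate, read as fluorescence at 594 nm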
Description: Inhibition of NTHL1 by quantifying inhibition of NTHL1-mediated cleavage and dissociation of quenched duplex DNA oligonucleotides, measured as fluorescence at 594 nm.
Classify as follows. Reported inhibition greater than or equal to 10%: YES. Reported inhibition below: NO.

Reference set, count: 6
[[record]]
compound = "C[C@@H](C(N)=O)[C@H](N)c1nc2ccc(C(C)(C)C)cc2[nH]1"
category = "YES"

[[record]]
compound = "COc1cc(-c2cncc(-c3ccc(N4CCN(C(C)C)CC4)cc3)c2C)cc(F)c1C(=O)N1CCCC1"
category = "NO"

[[record]]
compound = "COCC(=O)NC/C=C/c1ccc2ncnc(Nc3ccc(Oc4ccc(C)nc4)c(C)c3)c2c1"
category = "NO"

[[record]]
compound = "CCOC(=O)c1ncn2c1CN(C)C(=O)c1cc(F)ccc1-2"
category = "NO"

[[record]]
compound = "CCCCc1nc(Cl)c(CO)n1Cc1ccc(-c2ccccc2-c2nnn[nH]2)cc1"
category = "YES"

[[record]]
compound = "Oc1c(CN2CCN(c3ccccn3)CC2)cc(Cl)c2cccnc12"
category = "YES"


Data request: # check: inhibition of CCC(=O)NC[C@@H]1C[C@H]1c1cccc2c1CCO2 is greater than or equal to 10%
Data returned: NO

Data request: # check: inhibition of c1ccc(C2CN3CCC2CC3)cc1 (stereo unspecified) is greater than or equal to 10%
Data returned: YES

Data request: # check: inhibition of CCc1ccc(N(CC(C)C)S(=O)(=O)c2ccc(OCC3CCOCC3)c(CO)c2)cc1 is greater than or equal to 10%
Data returned: NO

Data request: # check: inhibition of C[S+]([O-])c1ccc(-c2nc(-c3ccc(F)cc3)c(-c3ccncc3)[nH]2)cc1 (stereo unspecified) is greater than or equal to 10%
Data returned: YES

Data request: # check: inhibition of O=c1ccn([C@@H]2O[C@H](COP(=O)(O)OP(=O)(O)OP(=O)(O)OP(=O)(O)OC[C@H]3O[C@@H](n4ccc(=O)[nH]c4=O)[C@H](O)[C@@H]3O)[C@@H](O)[C@H]2O)c(=O)[nH]1 is greater than or equal to 10%
Data returned: YES

Data request: # check: inhibition of CCCCOCCOc1nc(-c2ccc(C(=O)O)c(F)c2)sc1C is greater than or equal to 10%
Data returned: NO

Data request: # check: inhibition of CN([C@@H]1CCc2c(CC(=O)O)c3ccccc3n2C1)S(=O)(=O)c1ccc(F)cc1 is greater than or equal to 10%
Data returned: YES

Data request: # check: inhibition of COc1ccc(OC(=O)N(CC(=O)O)Cc2ccc(OCCc3nc(-c4ccccc4)oc3C)cc2)cc1 is greater than or equal to 10%
Data returned: NO

###

Listing of entries alongside the reported inhibition.
biological target: Endonuclease 8-like 1 (Homo sapiens); details: Compound Concentration 10.0 uM, Hit No;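 further: fluorescence at 594 nm from quenched duplex DNA oligonucleotides released by NEIL1 cleavage and strand separation, reported as reduction of this enzyme activity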
Provide only the numeric value, understood in %.

[[record]]
compound = "O=C(Nc1nc2cccc(-c3ccc(CN4CCS(=O)(=O)CC4)cc3)n2n1)C1CC1"
unit_label = "%"
observed_measurement = -4.22


From here, focus on the item given below.
In plain terms, Cc1c(OCc2cccc(-c3ccc(C(=O)O)cc3)c2)cc2c(c1C)C(=O)C(C1CCCC1)C2 (stereo not given) has a documented inhibition of -5.54

###

target: G/T mismatch-specific thymine DNA glycosylase (Homo sapiens) (UniProt Q13569); conditions: Compound Concentration 10.0 uM, Hit No;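 further: human TDG cleavage of quenched duplex DNA oligonucleotides coupled to APE1, strand release read as fluorescence at 594 nm, inhibition of TDG activity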
Sequence (Q13569 whole entry): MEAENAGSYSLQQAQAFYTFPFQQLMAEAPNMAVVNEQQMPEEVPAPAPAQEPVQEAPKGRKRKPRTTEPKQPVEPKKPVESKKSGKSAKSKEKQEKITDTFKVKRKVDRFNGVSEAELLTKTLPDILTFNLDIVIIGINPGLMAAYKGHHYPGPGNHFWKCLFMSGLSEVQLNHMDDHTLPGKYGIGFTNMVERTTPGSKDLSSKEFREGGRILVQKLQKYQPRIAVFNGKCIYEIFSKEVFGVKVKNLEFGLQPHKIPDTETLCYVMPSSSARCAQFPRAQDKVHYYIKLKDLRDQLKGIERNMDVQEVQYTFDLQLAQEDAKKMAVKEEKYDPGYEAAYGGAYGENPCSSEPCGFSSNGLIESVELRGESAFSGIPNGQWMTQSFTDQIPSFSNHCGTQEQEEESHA
Readout Type: inhibition
Numeric answer plus unit only.

[[record]]
compound = "Cn1cc(Nc2nccc(N3CC4CCC(C3)N4C(=O)[C@@H]3CC3(F)F)n2)cn1"
readout_type = "inhibition"
observed_measurement = "35.9%"

[[record]]
compound = "CC(C)(C)NCC(O)COc1cccc2[nH]c(=O)[nH]c12 (stereo not given)"
readout_type = "inhibition"
observed_measurement = "5.99%"

[[record]]
compound = "Clc1ccc(-c2nc3sccn3c2/C=N/OCc2ccc(Cl)c(Cl)c2)cc1"
readout_type = "inhibition"
observed_measurement = "76.8%"

[[record]]
compound = "CCCN[C@H]1CCc2nc(N)sc2C1"
readout_type = "inhibition"
observed_measurement = "19.3%"


In plain terms, O=c1cc(-c2cc(F)c(Cl)nc2Cl)[nH]c2c(-c3ccccc3)c(C(F)(F)F)nn12 has a documented inhibition of 54.8%

In plain terms, Cc1cc(C(=O)N2Cc3cnn(C)c3Nc3ccccc32)ccc1CNC(=O)N1CCC[C@H]1C(=S)N1CCCN(C)CC1 has a documented inhibition of -7.26%

In plain terms, Cc1nc2sccn2c(=O)c1CCN1CCC(=C(c2ccc(F)cc2)c2ccc(F)cc2)CC1 has a documented inhibition of 20.8%

In plain terms, CC[C@@H](C[C@H]1COC(N)=N1)c1ccccc1 has a documented inhibition of 11.1%

In plain terms, COc1ccncc1C(=O)NC(=O)Nc1ccc(-c2ccccc2)c(C(F)(F)F)c1 has a documented inhibition of -6.05%

In plain terms, O=C(NCc1ccc(F)cc1)N1CCN2C(=O)OC(c3ccccc3)(c3ccccc3)C2C1 (stereo not given) has a documented inhibition of 6.86%
